STUDY_TARGET: T1, Human ST2 (human, UniProt Q01638 19-328, limits assumed)
T1 construct: also called human ST2 protein; Interleukin 1 receptor-like 1
T1 sequence (looked up): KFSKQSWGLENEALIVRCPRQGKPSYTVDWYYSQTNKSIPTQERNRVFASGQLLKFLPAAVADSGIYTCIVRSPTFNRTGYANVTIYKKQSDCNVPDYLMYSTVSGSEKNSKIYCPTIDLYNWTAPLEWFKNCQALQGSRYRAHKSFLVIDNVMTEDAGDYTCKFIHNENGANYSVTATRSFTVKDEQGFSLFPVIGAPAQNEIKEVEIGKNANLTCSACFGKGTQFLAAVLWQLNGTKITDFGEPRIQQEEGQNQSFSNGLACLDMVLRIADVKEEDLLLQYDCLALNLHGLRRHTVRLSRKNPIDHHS
PROTOCOL_SUMMARY: SPR (Carterra), antibody immobilized, ST2 analyte
PROPERTY: koff (s⁻¹)
Give the quantity in s⁻¹, number only.

*Q* koff for Human ST2 IgG1 Antibody 7 (antibody, V domains shown, IgG1; also called ST2 Antibody 7) VH: QVQLVQSGAEVKKPGASVKVSCKASGYTFTDSYIHWVRQAPGQGLEWMGWMNPNSGNTGYAQKFQGRVTMTRDTSTSTVYMELSSLRSEDTAVYYCARGVFDYGDYGYYYHYMDVWGKGTTVTVSS VL: DIVMTQSPLSLPVTPGEPASISCRSSQSLLHSNGYNYLDWYLQKPGQSPQLLIYGASTLQPGVPDRFSGSGSGTDFTLKISRVEAEDVGVYYCMQGTQWPTFGQGTKLEIKR ?
*A* 0.0044

*Q* Entry Human ST2 IgG1 Antibody 75 (antibody, V domains shown, IgG1; also called ST2 Antibody 75) VH: EVQLLESGGGLVQHGGSLRLSCAASGFTFSSYWMSWVRQAPGKGLEWVSSISSSSSYIYYADSVKGRFTISRDNSKNTLYLQMNSLRAEDTAVYYCARDIAGYFDLWGRGTLVTVSS VL: DIQMTQSPSSLSASVGDRVTITCQASQSISSYLNWYQQKPGKAPKLLIYAASSLQSGVPSRFSGSGSGTDFTLTISSLQPEDFATYYCQQGYLTPYTFGQGTKLEIKR please
*A* 0.041

*Q* Entry Human ST2 IgG1 Antibody 86 (antibody, V domains shown, IgG1; also called ST2 Antibody 86) VH: QVQLVQSGAEVKKPGSSVKVSCKASGGTFSNYAISWVRQAPGQGLEWMGGIIPIFGTANYAQKFQGRVTITADESTSTAYMELSSLRSEDTAVYYCAKDLGGWFNLFDPWGQGTLVTVSS VL: EIVMTQSPATLSVSPGERATLSCRASQGVSSYLAWYQQKPGQAPRLLIYGASTRATGIPARFSGSGSGTEFTLTISSLQSEDFAVYYCQQYRSFPLTFGGGTKVEIKR please
*A* 0.029

*Q* Entry Human ST2 IgG1 Antibody 90 (antibody, V domains shown, IgG1; also called ST2 Antibody 90) VH: QVQLVQSGAEVKKPGSSVKVSCKASGYTFSDFSIHWVRQAPGQGLEWMGGMLPISHIAHYARKFQGRVTITADESTSTAYMELSSLRSEDTAVYYCARGGSSGWFEVWGQGTTVTVSS VL: DIVMTQSPLSLPVTPGEPASISCRSSQSLLHSNGYNYLDWYLQKPGQSPQLLIYAASTLQSGVPDRFSGSGSGTDFTLKISRVEAEDVGVYYCMQGAHWPPTFGQGTKLEIKR please
*A* 0.17

*Q* Entry Human ST2 IgG1 Antibody 72 (antibody, V domains shown, IgG1; also called ST2 Antibody 72) VH: EVQLLESGGGLVQPGGSLRLSCAASGFTFSSYGMSWVRQAPGKGLEWLAVIWSDGGHKYYADSVKGRFTISRDNSKNTLYLQMNSLRAEDTAVYYCAREVRGWFDPWGQGTLVTVSS VL: DIQMTQSPSSLSASVGDRVTITCRASENIGTWLAWYQQKPGKAPKLLIYKASSLDSGVPSRFSGSGSGTDFTLTISSLQPEDFATYYCQQSYSTPYTFGQGTKLEIKR please
*A* 0.082

Values compiled from patent US20210403579A1.
